- assay.system: human chloride intracellular channel 1 (human, UniProt O00299 1-241)
- protocol: cell-based or functional assay
No end group written: not given here.
measured.parameter: Reporter Ratio (A5T4 reporter line, IL-4 induced germline epsilon transcription)

LYTSAALHGATTASMTKPLA [peptide DL03IL]	1.16
LYTSILLHGATTASMTKPLA (also: expressed as BFP fusion (BFP, alpha-helical linker, peptide) in GAL4 bait vector, fusion sequences not given here) [peptide DL03wt]	1.5

a = LYTSILLHGATTASMTAALA [peptide DL03KP]
b = LYTSILLHGATTASMTKPAR [peptide DL03LA]
Exercise: Could you kindly indicate whether a or b has the higher Reporter Ratio (A5T4 reporter line, IL-4 induced germline epsilon transcription) value? // output: label of the selected item
Key: a

// data source = patent US20040014148A1
